test: Metabolic stability in Wistar rat blood plasma after 15 mins by HPLC analysis; format: ADME, cell-free; conditions: read-out: Stability

compound.structure: C=CC(=O)NCCCC[C@H](NC(=O)Cc1ccccc1)C(=O)N1CCN(c2cccc(C)n2)CC1
remaining at 0.25 h: 65%

* * *

molecular target: Protein-glutamine gamma-glutamyltransferase (Homo sapiens); assay: Inhibition of recombinant human TG2 by fluorescence assay
Sequence (P21980 whole entry): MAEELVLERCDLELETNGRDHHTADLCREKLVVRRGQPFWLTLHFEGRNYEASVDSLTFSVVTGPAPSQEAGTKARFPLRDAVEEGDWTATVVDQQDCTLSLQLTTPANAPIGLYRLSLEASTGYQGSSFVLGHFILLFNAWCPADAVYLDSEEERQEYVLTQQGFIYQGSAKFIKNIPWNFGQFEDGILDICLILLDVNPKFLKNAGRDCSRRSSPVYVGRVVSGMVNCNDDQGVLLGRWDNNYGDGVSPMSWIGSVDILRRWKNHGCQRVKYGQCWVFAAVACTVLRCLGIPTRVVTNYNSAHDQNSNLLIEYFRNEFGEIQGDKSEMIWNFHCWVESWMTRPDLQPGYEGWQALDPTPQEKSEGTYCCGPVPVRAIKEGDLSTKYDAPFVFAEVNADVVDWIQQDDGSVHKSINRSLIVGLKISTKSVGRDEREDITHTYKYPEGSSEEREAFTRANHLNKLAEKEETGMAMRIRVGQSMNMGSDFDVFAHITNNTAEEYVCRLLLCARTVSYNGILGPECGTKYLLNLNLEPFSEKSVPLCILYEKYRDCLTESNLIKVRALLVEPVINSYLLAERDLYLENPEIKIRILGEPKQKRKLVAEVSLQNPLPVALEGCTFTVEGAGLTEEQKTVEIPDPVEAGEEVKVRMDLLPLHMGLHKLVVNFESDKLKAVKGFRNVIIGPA
pIC50: −log10 of the molar value.
measured.endpoint: pIC50

compound.structure: C=CC(=O)NCC(=O)N1CCN(S(=O)(=O)c2cccc3c(N(C)C)cccc23)CC1
numeric.value: 8.22

Provenance of the data: ChEMBL document CHEMBL4024703
